Measured IC50 by item
system: A549; test: Anti-proliferative activity against human A549 cells incubated for 72 hrs by MTT assay; type: functional, cell-based; settings: A549, 72 h
measured attribute: IC50 (µM)

compound="C[C@@H]1CC[C@H]2[C@@H](C)C(OC(=O)CCc3nc(-c4ccccc4)no3)O[C@@H]3O[C@@]4(C)CC[C@H]1[C@]32OO4 (stereo partly specified)" limit_sign== measurement=9.1
compound="C[C@@H]1CC[C@H]2[C@@H](C)C(OC(=O)Nc3ccccc3)O[C@@H]3O[C@@]4(C)CC[C@H]1[C@]32OO4 (stereo partly specified)" limit_sign== measurement=4.18
compound="C[C@@H]1CC[C@H]2[C@@H](C)C(OC(=O)CCc3nc(-c4ccc(Cl)c(Cl)c4)no3)O[C@@H]3O[C@@]4(C)CC[C@H]1[C@]32OO4 (stereo partly specified)" limit_sign== measurement=9.09
compound="C[C@@H]1CC[C@H]2[C@@H](C)C(OC(=O)c3cccc4ncccc34)O[C@@H]3O[C@@]4(C)CC[C@H]1[C@]32OO4 (stereo partly specified)" limit_sign=> measurement=10
compound="COc1ccc(NC(=O)OC2O[C@@H]3O[C@@]4(C)CC[C@@H]5[C@H](C)CC[C@@H]([C@H]2C)[C@@]35OO4)cc1 (stereo partly specified)" limit_sign== measurement=5.8
compound="C[C@@H]1CC[C@H]2[C@@H](C)C(OC(=O)c3cn(-c4ccccc4)nn3)O[C@@H]3O[C@@]4(C)CC[C@H]1[C@]32OO4 (stereo partly specified)" limit_sign=> measurement=10
